Taken from patent US6359144B1.

Quick reference: IC50 of the listed items.
- target or test system: σ receptor (Rattus norvegicus)
- Construct: can be performed with particulate membranes prepared using a modification of the method described in Pasternak et al; tissue Rockland (Gilbertsville, Pa.); host or cells: rat brain minus cerebellum, crude particulate membranes
- Sequence (Q9R0C9 whole entry): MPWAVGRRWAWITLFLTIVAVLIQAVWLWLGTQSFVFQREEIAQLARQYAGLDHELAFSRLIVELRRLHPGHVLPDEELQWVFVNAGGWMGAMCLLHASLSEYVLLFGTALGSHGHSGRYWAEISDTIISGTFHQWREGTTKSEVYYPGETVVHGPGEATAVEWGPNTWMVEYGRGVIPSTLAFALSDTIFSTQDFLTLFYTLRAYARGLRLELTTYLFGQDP
- run description: σ receptor radio-receptor binding assay
- cond: 24 individual compounds, Table 10

- compound: "CC(C)CC1CN2C(=NCC2C2CCCCC2)N1CCC12CC3CC(CC(C3)C1)C2 (stereo not shown)"
  unit abbrev: "nM"
  IC50: 124
- compound: "CC(C)CC1CN2C(=NCC2C)N1CCC12CC3CC(CC(C3)C1)C2 (stereo not shown)"
  unit abbrev: "nM"
  IC50: 974
- compound: "COc1ccc(CC2CN3C(=NCC3C)N2CCC23CC4CC(CC(C4)C2)C3)cc1 (stereo not shown) [compound 16]"
  unit abbrev: "nM"
  IC50: 1080
- compound: "C1CCC(CCCN2C3=NC[C@H](C4CCCCC4)N3C[C@@H]2C2CCCCC2)CC1"
  unit abbrev: "nM"
  IC50: 210
